Provenance of the data: ChEMBL document CHEMBL1135510

Biological target: Metabotropic glutamate receptor 4 (Homo sapiens)
Sequence (Q14833 whole entry): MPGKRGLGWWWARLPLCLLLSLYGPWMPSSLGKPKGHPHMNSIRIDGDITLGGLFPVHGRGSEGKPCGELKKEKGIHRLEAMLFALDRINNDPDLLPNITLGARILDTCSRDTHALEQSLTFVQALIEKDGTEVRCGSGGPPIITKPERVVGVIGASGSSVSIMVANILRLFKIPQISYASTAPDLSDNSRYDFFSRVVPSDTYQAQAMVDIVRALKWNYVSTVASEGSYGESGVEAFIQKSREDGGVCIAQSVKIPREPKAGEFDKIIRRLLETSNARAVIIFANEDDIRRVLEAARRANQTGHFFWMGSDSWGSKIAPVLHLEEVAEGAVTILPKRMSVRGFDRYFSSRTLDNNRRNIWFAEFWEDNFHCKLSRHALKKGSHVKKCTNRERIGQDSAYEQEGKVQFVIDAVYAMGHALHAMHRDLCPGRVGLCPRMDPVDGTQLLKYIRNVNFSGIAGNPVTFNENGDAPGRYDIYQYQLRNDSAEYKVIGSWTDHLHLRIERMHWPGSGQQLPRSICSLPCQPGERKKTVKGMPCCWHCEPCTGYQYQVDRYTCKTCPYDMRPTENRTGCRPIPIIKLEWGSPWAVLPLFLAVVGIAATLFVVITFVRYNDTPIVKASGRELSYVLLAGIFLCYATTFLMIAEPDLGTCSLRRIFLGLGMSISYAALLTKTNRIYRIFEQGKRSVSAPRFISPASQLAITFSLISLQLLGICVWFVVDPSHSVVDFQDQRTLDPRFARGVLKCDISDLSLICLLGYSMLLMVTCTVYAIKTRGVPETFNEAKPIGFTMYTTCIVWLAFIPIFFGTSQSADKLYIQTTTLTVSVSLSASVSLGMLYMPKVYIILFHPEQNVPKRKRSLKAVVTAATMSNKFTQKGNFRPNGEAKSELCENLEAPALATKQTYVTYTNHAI
Please provide measured pKi for the entries that follow.
Keep in mind that pKi stands for -log10 of concentration in molar terms.

Lookup: Look at this molecule and give its reported pKi. N[C@@H](CCP(=O)(O)O)C(=O)O
Found: 6.33

Lookup: Any idea what pKi was measured for N[C@@H](Cn1oc(=O)[nH]c1=O)C(=O)O [QUISQUALATE] ?
Found: 3.95

Lookup: What does the record list as pKi for N[C@H](C(=O)O)c1ccc(C(=O)O)cc1 ?
Found: 3.08

====

Answer each item with its documented pKi.
Would you please state pKi, meaning minus log10 of the concentration in mol/L, as a bare number?

Lookup: Look up pKi with Metabotropic glutamate receptor 1 (Rattus norvegicus) for this compound: N[C@H](C(=O)O)c1ccc(C(=O)O)cc1
Sequence (P23385 whole entry): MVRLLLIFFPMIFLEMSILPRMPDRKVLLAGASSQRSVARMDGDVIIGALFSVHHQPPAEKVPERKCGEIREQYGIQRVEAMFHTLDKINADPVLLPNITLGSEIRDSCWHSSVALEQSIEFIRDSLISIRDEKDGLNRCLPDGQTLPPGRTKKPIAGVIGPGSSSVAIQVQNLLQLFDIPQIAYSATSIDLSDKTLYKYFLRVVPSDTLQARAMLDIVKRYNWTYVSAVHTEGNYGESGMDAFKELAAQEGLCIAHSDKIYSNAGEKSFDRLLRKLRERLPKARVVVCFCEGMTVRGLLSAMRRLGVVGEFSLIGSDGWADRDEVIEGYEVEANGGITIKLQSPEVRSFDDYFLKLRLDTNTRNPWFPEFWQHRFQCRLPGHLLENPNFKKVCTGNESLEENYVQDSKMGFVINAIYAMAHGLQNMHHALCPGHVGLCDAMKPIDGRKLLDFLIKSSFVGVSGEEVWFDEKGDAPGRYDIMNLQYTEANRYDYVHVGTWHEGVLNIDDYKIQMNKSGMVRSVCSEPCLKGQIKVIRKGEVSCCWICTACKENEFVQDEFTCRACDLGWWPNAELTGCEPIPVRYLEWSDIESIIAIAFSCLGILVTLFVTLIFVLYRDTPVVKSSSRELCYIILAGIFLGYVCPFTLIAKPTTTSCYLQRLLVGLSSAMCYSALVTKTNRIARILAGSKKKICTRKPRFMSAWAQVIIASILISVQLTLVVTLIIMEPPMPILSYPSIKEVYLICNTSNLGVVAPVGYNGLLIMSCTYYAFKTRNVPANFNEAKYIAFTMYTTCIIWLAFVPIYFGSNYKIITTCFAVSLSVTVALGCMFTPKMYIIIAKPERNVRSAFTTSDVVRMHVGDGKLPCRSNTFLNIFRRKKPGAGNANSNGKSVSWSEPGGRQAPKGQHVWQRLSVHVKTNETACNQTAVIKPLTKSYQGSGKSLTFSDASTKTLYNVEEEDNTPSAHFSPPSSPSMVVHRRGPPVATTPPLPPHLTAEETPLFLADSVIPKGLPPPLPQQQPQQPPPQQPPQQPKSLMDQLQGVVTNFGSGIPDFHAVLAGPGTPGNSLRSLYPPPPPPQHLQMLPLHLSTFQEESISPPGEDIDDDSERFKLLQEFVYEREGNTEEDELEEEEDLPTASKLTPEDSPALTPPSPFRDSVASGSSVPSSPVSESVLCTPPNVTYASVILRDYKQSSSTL
Found: 5.43

Lookup: Lab note: need pKi with Metabotropic glutamate receptor 1 (Rattus norvegicus) for entry N[C@H](C(=O)O)C1[C@@H](C(=O)O)[C@@H]1C(=O)O (some centres undefined) , please look it up.
Found: 4.11

Lookup: Query pKi on Metabotropic glutamate receptor 1 (Rattus norvegicus) for N[C@H](C(=O)O)c1cc(O)cc(O)c1
Found: 6.05
